Could you please report measured Rate enhancement, Cdk2 S276C for the items listed next?
- Target Under Test: Cdk2(S276C) (C177A) (Homo sapiens, UniProt P24941, C177A/S276C)
- Construct: poly-histidine; made in house; host or cells: E. coli
- Assay Notes: Kinetic thiol consumption assay with Cdk2 mutant S276C
- Assay type: binding
- Set-up: key: rate constant with Cdk2 ÷ rate constant with model thiol (fold)
- Settings: Cdk2 S276C, additional mutation C177A
One number for each entry.

These recorded examples may help you get a feel for the data.
Molecule	Target Under Test	Rate enhancement, Cdk2 S276C
O=C(c1ccccc1)[C@@H]1O[C@H]1c1ccccc1	Cdk2(S276C) (C177A) (Homo sapiens, UniProt P24941, C177A/S276C)	74.76
C=CC(=O)N1CC(Cc2ccccc2)C1	Cdk2(S276C) (C177A) (Homo sapiens, UniProt P24941, C177A/S276C)	4.036
C=CC(=O)Nc1ccc(-c2ncccn2)cc1	Cdk2(S276C) (C177A) (Homo sapiens, UniProt P24941, C177A/S276C)	1.763

// input: 4 molecules below; output: Rate enhancement, Cdk2 S276C for each
1. C=CC(=O)N(Cc1ccc2c(c1)CCO2)C1CCCC1
2. C=CC(=O)N1CCN(Cc2ccc(Cl)cc2)CC1
3. C=CC(=O)NCc1ccc(-c2csnn2)cc1
4. C=CC(=O)N1CC2CCN(Cc3ccccc3)C2C1 (stereo not drawn)

[20.94, 0.8088, 0, 0.3527]

// input: 7 molecules below; output: Rate enhancement, Cdk2 S276C for each
1. C=CC(=O)N(CC(=O)NC1CC1)C1CC1
2. C=CC(=O)NC(C)c1cccc(N2CCOCC2)c1 (stereo not drawn)
3. C=CC(=O)N1CCCc2cc(C(=O)OC)ccc21
4. C=CC(=O)N(C1CC1)C1CCCCC1C1CCCCC1 (stereo not drawn)
5. C=CC(=O)Nc1ccc(C(=O)OC)cc1
6. C=CC(=O)N1CCN(C(=O)OCC)CC1c1cccs1 (stereo not drawn)
7. C=CC(=O)N1CCn2c(C(=O)NC3CC3)ccc2C1C (stereo not drawn)

1: 0.5294; 2: 2.7205E−11; 3: 1.09; 4: 7.411; 5: 1.04; 6: 0.7713; 7: 0.7654

// input: 5 molecules below; output: Rate enhancement, Cdk2 S276C for each
1. C=CC(=O)N1CCN(C(=O)OC(C)(C)C)c2ccccc21
2. CC1CN(C(=O)CCl)CC(C)O1 (stereo not drawn)
3. C=CC(=O)N1CCC2CCC(C1)N2C (stereo not drawn)
4. C=CC(=O)Nc1cccc(Nc2ncnc3cc(OC)c(OC)cc23)c1
5. O=C(CCl)N1CCCCCC1

1. 1.046
2. 0.5904
3. 0.6344
4. 0.1863
5. 1.075
